assay: gradient 5% acetonitrile 3 min, to 50% in 2 min, to 85% in 15 min, held 3 min, 100 µL/min; settings: column: Zorbax Extend-C18 2.1 x 50 mm; eluents: water / acetonitrile, 0.1% formic acid
RECORDED_METRIC: RP-LC retention time (s)

Sample answers from the record:
>>> data_value("Cc1cc(C)n(-c2ccc(=O)n(CCNC(=O)CCn3cnc4ccccc4c3=O)n2)n1")
605
>>> data_value("O=C1COc2cc(Cl)ccc2N1Cc1nc(-c2ccc(OC(F)(F)F)cc2)no1")
1220
>>> data_value("Cc1nc(CNC(=O)[C@H]2CCCN2S(=O)(=O)c2cccc(C(F)(F)F)c2)cs1")
787

I: COCCNc1c(-c2cccc(OC)c2)nc2sc(C(=O)N(C)C)c(C)n12
II: Cc1ccc(-c2nc(-c3ccc4c(c3)nc(C)c(=O)n4C)no2)cc1
Param pair: I , II . Output: the one whose RP-LC retention time is numerically greater. In your reply, give the label of the chosen option. II
(II: 1090 s, I: 698 s)

a: CC(C)c1cc(N2CCN(C(=O)Cc3cccs3)CC2)nc2nncn12
b: Cc1ccc(-c2noc(C3CCCN3S(=O)(=O)c3cc(C)ccc3C)n2)cc1 (stereo unspecified)
Which entry shows the lesser value of RP-LC retention time here, a or b ? In your reply, give the label of the chosen option. a

A: CCc1ccc(NC(=O)C2(C)Oc3cccnc3NC2=O)cc1 (stereo unspecified)
B: Cc1ccc(F)cc1NC(=O)c1cc(C2CC2)n2nccc2n1
Param pair: A , B . Output: the one whose RP-LC retention time is numerically greater. In your reply, give the label of the chosen option. B
(B: 1140 s, A: 770 s)
